Assay: DRUGMATRIX: Phosphodiesterase PDE4 enzyme inhibition (substrate: [3H]cAMP + cAMP)
Conditions: u-937; Not Active = under 50% inhibition at 10 µM; read-out: IC50
Overview of reported IC50 across a group of molecules:

STRUCTURE NOTATION	IC50
CCN(CC)C(=S)SSC(=S)N(CC)CC	4.8 µM
CN(CCOc1ccc(C[C@H](Nc2ccccc2C(=O)c2ccccc2)C(=O)O)cc1)c1ccccn1	7.45 µM
O=C(OC[C@H]1O[C@@H](OC(=O)c2cc(O)c(O)c(OC(=O)c3cc(O)c(O)c(O)c3)c2)[C@H](OC(=O)c2cc(O)c(O)c(OC(=O)c3cc(O)c(O)c(O)c3)c2)[C@@H](OC(=O)c2cc(O)c(O)c(OC(=O)c3cc(O)c(O)c(O)c3)c2)[C@@H]1OC(=O)c1cc(O)c(O)c(OC(=O)c2cc(O)c(O)c(O)c2)c1)c1cc(O)c(O)c(OC(=O)c2cc(O)c(O)c(O)c2)c1	1.04 µM
